Value source: patent US20210070748A1

# Test System: TEC (Homo sapiens)
# Sequence (P42680 1-631): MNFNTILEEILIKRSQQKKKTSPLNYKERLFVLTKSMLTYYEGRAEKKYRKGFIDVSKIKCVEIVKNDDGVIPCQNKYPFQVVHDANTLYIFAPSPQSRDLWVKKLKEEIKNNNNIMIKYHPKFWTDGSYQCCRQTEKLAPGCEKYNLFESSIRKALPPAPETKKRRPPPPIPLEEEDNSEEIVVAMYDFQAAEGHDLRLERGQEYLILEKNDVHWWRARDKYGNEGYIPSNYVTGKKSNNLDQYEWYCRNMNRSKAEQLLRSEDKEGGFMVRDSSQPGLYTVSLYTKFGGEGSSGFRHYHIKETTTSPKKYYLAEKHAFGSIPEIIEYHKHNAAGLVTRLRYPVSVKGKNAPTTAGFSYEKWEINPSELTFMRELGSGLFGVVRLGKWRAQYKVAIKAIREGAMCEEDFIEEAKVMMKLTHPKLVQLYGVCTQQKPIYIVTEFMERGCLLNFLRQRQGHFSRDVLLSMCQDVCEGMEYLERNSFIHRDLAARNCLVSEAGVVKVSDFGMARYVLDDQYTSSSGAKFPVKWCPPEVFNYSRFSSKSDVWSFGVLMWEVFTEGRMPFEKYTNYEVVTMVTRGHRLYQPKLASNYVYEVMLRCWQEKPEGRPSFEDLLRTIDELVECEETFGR
# Test: Inhibition of a panel of kinases, in vitro HotSpot kinase assay: TEC
# Format: biochemical
# Run Parameters: E compounds, Table 17
Reported Endpoint: IC50

>  <Compound>
C=CC(=O)N1CCC[C@@H](Nc2nnc(C(N)=O)c(Nc3cccc(-c4ncccn4)c3)n2)C1 [Example E-55]

>  <IC50>
≤ 10 nM

$$$$
>  <Compound>
Cc1cc(Nc2nc(N3CC[C@H](O)[C@@H](N4CCC[C@@H](Nc5cc(Cl)cc(C(F)(F)F)c5)C4=O)C3)nnc2C(N)=O)sn1 [Example E-10]

>  <IC50>
10 to 100 nM

$$$$
>  <Compound>
C=CC(=O)N1CCC[C@@H](Nc2nnc(C(N)=O)c(Nc3ccc(C)cc3)n2)C1 [Example E-43]

>  <IC50>
≤ 10 nM

$$$$

Let us move to another entry and its IC50.
Identify measured IC50 obtained with TEC (Homo sapiens) for Cc1cc(C(=O)N[C@@H]2CCCN(c3cnc(C(N)=O)c(Nc4cnn(C)c4)n3)[C@@H]2C)ccc1C(C)(C)O [Example E-152] .
≤ 10 nM

----------
# Test System: TEC (Homo sapiens)
# Test: Inhibition of a panel of kinases, in vitro HotSpot kinase assay: TEC
# Format: biochemical
# Run Parameters: D-compounds panel data; 1 μM ATP
Documented IC50 across a set of molecules

Please review the entries below; each comes with its answer.
>  <Molecule>
Cc1cc(Nc2nc(N3CCC[C@@H](c4ncc(-c5ccccc5)[nH]4)C3)cnc2C(N)=O)sn1

>  <Measured>
100 to 1000 nM

$$$$
>  <Molecule>
C[C@@H]1CC[C@@H](NC(=O)c2ccc(C3CC3)cc2)CN1c1cnc(C(N)=O)c(Nc2cnn(C)c2)n1

>  <Measured>
100 to 1000 nM

$$$$
>  <Molecule>
C[C@@H]1[C@H](NC(=O)c2ccc(C3CC3)cc2)CCCN1c1cnc(C(N)=O)c(Nc2ccc(N3CCC(F)(F)CC3)cc2)n1

>  <Measured>
10 to 100 nM

$$$$
>  <Molecule>
C[C@@H]1[C@H](NC(=O)c2ccc(C3CC3)cc2F)CCCN1c1cnc(C(N)=O)c(Nc2ccc(C3(C)CCN(C4CC4)CC3)cc2)n1

>  <Measured>
10 to 100 nM

$$$$
>  <Molecule>
Cn1cc(Nc2nc(N3C4CCC(NC(=O)c5ccc(C6CC6)cc5)C3CC4)cnc2C(N)=O)cn1 (single isomer, unassigned) [Example D-199]

>  <Measured>
1000 to 10000 nM

$$$$

Look up and state reported IC50 for C[C@@H]1[C@H](NC(=O)c2ccc(C3CC3)cc2)CCCN1c1cnc(C(N)=O)c(Nc2ccc(N3CCCCC3)cc2)n1
10 to 100 nM
